A compilation of published Kd results with Retinoic acid receptor alpha (Homo sapiens).
ASSAY_ENDPOINT: Kd (nM)

Worked examples, 5 compounds total:
CC(C)(C)c1ccc(C#Cc2ccc(C(=O)O)c(F)c2)cc1Oc1ccc(N=[N+]=[N-])cc1	20
C=C(c1ccc(C)cc1)c1cc(C#Cc2ccc(C(=O)O)cc2)ccc1OC	1450
Cc1ccc(Oc2cc(C#Cc3ccc(C(=O)O)cc3)ccc2C(C)(C)C)cc1	48
COCOc1ccc(C#Cc2ccc(C(=O)O)cc2)cc1C(=O)c1ccc(C)cc1	1190
CO/N=C1\CCC(C)(C)c2ccc(/N=N/c3ccc(C(=O)O)cc3)cc21	1000

1 = O=C(O)c1ccc2cc(-c3ccc(O)c(C45CC6CC(CC(C6)C4)C5)c3)ccc2c1
2 = Cc1ccc(C2=CCC(C)(C)C=C2/C=C/C#Cc2ccc(C(=O)O)cc2)cc1
Exam item: Which value of Kd is smaller, the one for 1 or the one for 2 ? Please reply using the label of the selected record.
Marked response: 2
